The measurements presented in this section are drawn from patent US12630525B2.

assay_protocol: 14-day toxicity test with toxicokinetics in SD rats
Assay type: in vivo
reported_conditions: female, SD, rat, blood, 100 mg/kg, female SD rats, 100 mg/kg once a day, first administration; read-out: AUC0t First administration
experimental_readout: AUC (µg·h/mL)
Give the value, in units of µg·h/mL, as a plain number.

- O=C(O)[C@H]1C[C@@H]1Cn1c(=O)[nH]/c(=N\c2ccc(Oc3ccc(F)cn3)cc2)n(Cc2ccc(Cl)cc2)c1=O [Compound H5-P1]: 1420

Proceed to the following item.
Sample C[C@@H](Cn1c(=O)nc(Nc2ccc(Oc3ccccn3)cc2)n(Cc2ccc(Cl)cc2)c1=O)C(=O)O [Compound D1, reference compound] — what was its AUC?
2420

====

tested_system: hP2X2/3 (Homo sapiens, UniProt P56373+Q9UBL9)
Construct: host or cells: 1321N1
Sequence (P56373 1-397): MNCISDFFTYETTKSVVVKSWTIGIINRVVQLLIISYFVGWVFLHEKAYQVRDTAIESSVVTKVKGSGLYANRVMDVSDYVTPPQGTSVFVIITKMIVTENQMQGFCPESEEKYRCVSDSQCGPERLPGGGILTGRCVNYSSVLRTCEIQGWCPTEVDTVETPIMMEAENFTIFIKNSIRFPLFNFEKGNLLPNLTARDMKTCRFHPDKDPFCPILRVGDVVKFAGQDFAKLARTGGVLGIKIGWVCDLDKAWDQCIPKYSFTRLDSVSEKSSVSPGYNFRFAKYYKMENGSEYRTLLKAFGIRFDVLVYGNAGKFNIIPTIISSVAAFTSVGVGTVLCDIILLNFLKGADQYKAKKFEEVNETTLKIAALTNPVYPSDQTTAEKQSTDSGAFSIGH
Sequence (Q9UBL9 1-471): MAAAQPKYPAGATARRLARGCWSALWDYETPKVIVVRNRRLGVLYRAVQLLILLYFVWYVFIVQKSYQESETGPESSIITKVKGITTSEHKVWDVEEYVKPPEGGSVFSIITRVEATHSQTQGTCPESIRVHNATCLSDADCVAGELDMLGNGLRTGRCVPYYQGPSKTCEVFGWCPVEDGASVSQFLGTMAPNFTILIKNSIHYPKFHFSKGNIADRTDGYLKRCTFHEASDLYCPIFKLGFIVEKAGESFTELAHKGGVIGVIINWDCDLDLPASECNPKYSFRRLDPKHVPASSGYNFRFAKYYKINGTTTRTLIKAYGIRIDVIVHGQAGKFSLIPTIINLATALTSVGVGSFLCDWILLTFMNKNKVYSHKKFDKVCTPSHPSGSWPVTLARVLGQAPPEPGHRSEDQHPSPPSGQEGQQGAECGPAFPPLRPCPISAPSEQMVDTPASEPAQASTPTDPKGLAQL
assay_protocol: FLIPR assay, antagonistic activity against hP2X2/3 receptor (selectivity versus P2X3)
Format: cell-based
reported_conditions: Multiple of P2X2/3 inhibitory activity and P2X3 inhibitory activity
We begin with a simple list: items and their reported Selectivity multiple.

Would you please look over these solved cases?
* O=C(O)[C@@H]1C[C@H]1Cn1c(=O)[nH]/c(=N\c2ccc(Oc3ncccc3F)cc2)n(Cc2ccc(Cl)cc2)c1=O (racemic) | 238
* O=C(O)[C@@H]1C[C@@H]1Cn1c(=O)[nH]/c(=N\c2ccc(Oc3ccccn3)cc2)n(Cc2ccc(Cl)cc2)c1=O (racemic) | 27
* O=C(O)[C@H]1C[C@@H]1Cn1c(=O)[nH]/c(=N\c2ccc(Oc3ccc(F)cn3)cc2)n(Cc2ccc(Cl)cc2)c1=O [Compound H5-P1] | 590
* O=C(O)[C@@H]1C[C@H]1Cn1c(=O)[nH]/c(=N\c2ccc(Oc3ccccn3)cc2)n(Cc2ccc(Cl)cc2)c1=O (racemic) | 151

// lookup Selectivity multiple for O=C(O)[C@@H]1C[C@H]1Cn1c(=O)[nH]c(=Nc2ccc(Oc3ccc(F)cn3)cc2)n(Cc2ccc(Cl)cc2)c1=O [Compound H5-P2]
176

And the next one, O=C(O)[C@@H]1C[C@H]1Cn1c(=O)[nH]/c(=N\c2ccc(Oc3ccc(F)cn3)cc2)n(Cc2ccc(Cl)cc2)c1=O (racemic) ?
251

Thanks! And O=C(O)[C@@H]1C[C@H]1Cn1c(=O)[nH]/c(=N\c2ccc(Oc3cccc(F)n3)cc2)n(Cc2ccc(Cl)cc2)c1=O (racemic) ?
114

====

assay_protocol: 14-day toxicity test with toxicokinetics in SD rats
Format: in vivo
reported_conditions: male, SD, rat, blood, 100 mg/kg, male SD rats, 100 mg/kg once a day, first administration; read-out: AUC0t First administration
experimental_readout: AUC (µg·h/mL)
Only the number, expressed in µg·h/mL, is required.

• C[C@@H](Cn1c(=O)nc(Nc2ccc(Oc3ccccn3)cc2)n(Cc2ccc(Cl)cc2)c1=O)C(=O)O [Compound D1, reference compound] = 2770

Entry under review: O=C(O)[C@H]1C[C@@H]1Cn1c(=O)[nH]/c(=N\c2ccc(Oc3ccc(F)cn3)cc2)n(Cc2ccc(Cl)cc2)c1=O [Compound H5-P1] . Reported AUC?
1460

====

assay_protocol: Exposure at the effective dose in the rat pain model (basis for safety windows)
reported_conditions: in vivo, 30 mg/kg
experimental_readout: AUC

Requested field: AUC. Item: O=C(O)[C@H]1C[C@@H]1Cn1c(=O)[nH]/c(=N\c2ccc(Oc3ccc(F)cn3)cc2)n(Cc2ccc(Cl)cc2)c1=O [Compound H5-P1]
~249 µg·h/mL

====

Each entry below carries its reported AUC.
assay_protocol: 14-day toxicity test with toxicokinetics in SD rats
Format: in vivo
reported_conditions: female, SD, rat, blood, 100 mg/kg, female SD rats, 100 mg/kg once a day for 14 days, last administration; read-out: AUC0t Last administration
Supply the numeric figure in µg·h/mL, leaving out any unit text.

* C[C@@H](Cn1c(=O)nc(Nc2ccc(Oc3ccccn3)cc2)n(Cc2ccc(Cl)cc2)c1=O)C(=O)O [Compound D1, reference compound] | 2150

We now examine a further compound.
Request the reported AUC associated with O=C(O)[C@H]1C[C@@H]1Cn1c(=O)[nH]/c(=N\c2ccc(Oc3ccc(F)cn3)cc2)n(Cc2ccc(Cl)cc2)c1=O [Compound H5-P1]
1740
